meta.source: ChEMBL document CHEMBL4342474

# Tested on: Trypanosoma cruzi
# assay-method-text: Antitrypanosomal activity against Trypanosoma cruzi CaI-72 trypomastigotes infected in mouse C2C12 cells measured after 72 hrs by DAPI staining based assay
# Assay type: functional, organism-based
# test-conditions: CaI-72, C2C12, 72 h
pEC50: −log10 of the molar value.
reported-endpoint: pEC50

chemical_structure=CN1CCN(c2ncc(-c3ccc4c(Nc5ccc(OCc6cccc(F)c6)c(Cl)c5)ccnc4c3)cn2)CC1 readout_value=7.52
chemical_structure=COc1ccc(NC(=O)c2cc(F)c(N3CCCN(C)CC3)cc2F)cc1Cl readout_value=5.26
chemical_structure=O=S(=O)(c1ccc(-c2ccc3nccc(NCCC4CCOCC4)c3c2)cc1)N1CCOCC1 readout_value=5.33
chemical_structure=CN1CCCN(S(=O)(=O)c2ccc(-c3ccc4c(Nc5ccc(Cl)cn5)ccnc4c3)cc2)CC1 readout_value=6.80

A = CN1CCCN(c2ccc(-c3ccc4c(Nc5cnccn5)ccnc4c3)cc2)CC1
B = CN1CCCN(S(=O)(=O)c2ccc(-c3ccc4c(Nc5ccc(OC(F)(F)F)cc5)ccnc4c3)cc2)CC1
C = CCCn1cc/c(=N\c2cnccn2)c2ccc(-c3cnc(N4CCCN(C)CC4)nc3)cc21
D = CN1CCCN(c2ncc(-c3ccc(C(=O)Nc4cccc(Cl)c4F)c(O)c3)cn2)CC1
E = CN1CCN(c2ncc(-c3ccc4c(NCC5CCOCC5)ccnc4c3)cn2)CC1
Put the entries in order of pEC50, starting with the largest number. Your answer should be the labels, listed in the requested order.
B, A, E, C, D
(B: 6.89, A: 6.43, E: 5.92, C: 5.68, D: 5.41)
